biological target: pERK1/2 (Thr202/Tyr204), NCI-1H358 (KRAS G12C) (Homo sapiens, UniProt P01116, G12C); construct: pERK1/2 HTRF read-out; assay: Assay of intracellular pERK1/2 (Thr202/Tyr204) phosphorylation in NCI-H358 cells (KRAS G12C); assay type: cell-based; settings: pERK1/2, 2 days, read-out: NCI-H358 (KRAS G12C) IC50
Sequence (P01116 1-188 isoform P01116-2 G12C): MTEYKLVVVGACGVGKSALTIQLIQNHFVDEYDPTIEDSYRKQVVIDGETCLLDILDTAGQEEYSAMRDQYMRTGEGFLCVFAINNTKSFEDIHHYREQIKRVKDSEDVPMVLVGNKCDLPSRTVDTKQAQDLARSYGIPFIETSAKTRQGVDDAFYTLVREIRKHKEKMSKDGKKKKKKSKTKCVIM
pIC50: −log10 of the molar value.
result.type: pIC50

molecule="[2H]C1([2H])CC[C@@]2(C([2H])([2H])Oc3nc4c5c(nc(-c6cc(N)cc(C)c6C(F)(F)F)c(F)c5n3)OCCN4C(C)c3cccnc3N)C[C@@H](F)CN12 (single isomer, unassigned) [Compound 115]" target_or_system="pERK1/2 (Thr202/Tyr204), NCI-1H358 (KRAS G12C) (Homo sapiens, UniProt P01116, G12C)" test_result=9.70
molecule="CC(c1cccnc1N)N1c2nc(OC[C@@]34CCCN3C[C@H](F)C4)nc3c(F)c(-c4c(C(F)(F)F)ccc5c4CCCN5)nc(c23)OC[C@@H]1C (single isomer, unassigned; diastereomer 1) [Compound 338]" target_or_system="pERK1/2 (Thr202/Tyr204), NCI-1H358 (KRAS G12C) (Homo sapiens, UniProt P01116, G12C)" test_result=7.64
molecule="Cc1cc(N)cc(-c2nc3c4c(nc(OC[C@H]5CCCN5CCF)nc4c2F)N(C(C)c2cccnc2N)CCO3)c1C(F)(F)F (single isomer, unassigned) [Compound 78]" target_or_system="pERK1/2 (Thr202/Tyr204), NCI-1H358 (KRAS G12C) (Homo sapiens, UniProt P01116, G12C)" test_result=8.70
molecule="Cc1c(C(F)(F)F)c(-c2nc3c4c(nc(OC[C@@]56CCCN5C[C@H](F)C6)nc4c2F)N(C(C)c2cccnc2N)[C@@H](C)CO3)c2cn[nH]c2c1F (some centres unmarked)" target_or_system="pERK1/2 (Thr202/Tyr204), NCI-1H358 (KRAS G12C) (Homo sapiens, UniProt P01116, G12C)" test_result=9.70
molecule="CC(c1cccnc1N)N1CCOc2nc(-c3cc(N)cc(Cl)c3C(F)(F)F)c(F)c3nc(OC[C@@]45CCCN4C[C@H](F)C5)nc1c23 (single isomer, unassigned) [Compound 72]" target_or_system="pERK1/2 (Thr202/Tyr204), NCI-1H358 (KRAS G12C) (Homo sapiens, UniProt P01116, G12C)" test_result=7.96

---

molecular target: pERK1/2 (Thr202/Tyr204), NCI-1H358 (KRAS G12C) (Homo sapiens, UniProt P01116, G12C); construct: pERK1/2 HTRF read-out; assay: Assay of intracellular pERK1/2 (Thr202/Tyr204) phosphorylation in NCI-H358 cells (KRAS G12C); format: cell-based; settings: pERK1/2, 2 days, read-out: NCI-H358 (KRAS G12C) IC50
result.type: IC50 (pM)

compound="Cc1c(F)c(N)cc(-c2nc3c4c(nc(OCC56CCCN5CC5(CC5)C6)nc4c2F)N(C(C)c2cccnc2N)CCO3)c1C(F)(F)F (stereo not drawn)" qualifier_operator== test_result=500
compound="Cc1cc(O)cc(-c2nc3c4c(nc(OC[C@@]56CCCN5C[C@H](F)C6)nc4c2F)N(C(C)c2cccnc2N)CCO3)c1C1CC1 (stereo partly drawn)" qualifier_operator== test_result=600
compound="Cc1cc(N)cc(-c2nc3c4c(nc(OC[C@@]56CCCN5C[C@H](F)C6)nc4c2F)N(C(C)c2cccnn2)CCO3)c1C(F)(F)F (single isomer, unassigned) [Compound 128]" qualifier_operator=> test_result=100000
